Numbers sourced from paper PMC3853718.

Experiment: clinical
Details: human, plasma, intravenous, 0.66 mg/m2
measure_name: Tmax (h)

[
  {
    "smiles_input": "CCc1cnn2c(NCc3ccc[n+]([O-])c3)cc(N3CCCC[C@H]3CCO)nc12",
    "unit_descriptor": "h",
    "measured_value": 1
  }
]

---

Test: clinical
Conditions: human, plasma, intravenous, 10 mg/m2
measure_name: Tmax (h)

[
  {
    "smiles_input": "CCc1cnn2c(NCc3ccc[n+]([O-])c3)cc(N3CCCC[C@H]3CCO)nc12",
    "measure_name": "Tmax",
    "measured_value": 2
  }
]

---

Assay: clinical
Conditions: human, plasma, intravenous, 1.85 mg/m2

[
  {
    "compound": "CCc1cnn2c(NCc3ccc[n+]([O-])c3)cc(N3CCCC[C@H]3CCO)nc12 [dinaciclib]",
    "AUC(0-inf)": "216 ng·h/mL"
  }
]
